biological target: Luciferin 4-monooxygenase (Photinus pyralis); test: Primary firefly luciferase (FLuc) qHTS assay for identification of artifact compounds. (AID 1845220); settings: purified firefly luciferase, luminescence, 5 min; series mostly up to 54.1 µM; further: nearly all actives have a fitted effect of over 60% in size
Active and inactive are the calls of the source. The call rests on the fitted dose curve; in most records, active means well fitted inhibition curve with a large enough effect; inconclusive means small, poorly fitted or top-dose-only effect; inactive means flat fitted curve, though single readings scatter.
Lab note: assign the record to one of active, inactive

Some solved cases for reference:
INSERT INTO results (compound, assigned_label) VALUES
  ('COc1cc(O)ccc1OCCNCC(O)COc1cccc2[nH]c3ccccc3c12 (stereo unspecified)', 'inactive'),
  ('C=C1C(=O)O[C@@H]2C[C@@H](C)[C@]34C[C@]5(C(=O)O[C@H]6CC(C)=C([C@H](C)CCCO)[C@H](OC(=O)C(C)CC)[C@H]65)[C@@H](C(C)=C3C[C@@H]12)[C@H]4OC(C)=O (stereo partly specified)', 'inactive'),
  ('C[C@@H](CN1CCC(n2c(=O)[nH]c3cc(Cl)ccc32)CC1)NC(=O)c1ccc2ccccc2c1', 'inactive'),
  ('CCCCOc1ccc(-c2cncc(C(=O)NCc3cccnc3N3CCOCC3)c2)cc1Cl', 'inactive'),
  ('COc1ccc(C(=O)N(CCC(C)C)Cc2nc(C)c(C)n2Cc2ccccc2C)c(OC)c1', 'inactive'),
  ('CCOC(=O)c1cnn(-c2ccc(NC(=O)C(Cl)=C(Cl)Cl)cc2)c1C(F)(F)F', 'inactive'),
  ('CC(=O)N[C@@H](CC(=O)O)C(=O)N[C@@H](CCC(=O)O)C(=O)N[C@H](C(=O)N[C@@H](CC(=O)O)C(=O)Nc1ccc2c(C)cc(=O)oc2c1)C(C)C', 'inactive'),
  ('C=CC(=O)N1CCN(C(=O)c2cc(-c3cc(Cl)ccc3Cl)c(Cl)cc2OC)CC1', 'inactive');

Problem: Hey, what did the test say about OC(CNCCc1c[nH]c2ccccc12)Cn1c2ccccc2c2ccccc21 (stereo unspecified) ?
Solution: inactive

Problem: Hey, what did the test say about `COc1ccccc1NC(=O)Nc1ccc2ccccc2c1` ?
Solution: active

Problem: Hey, what did the test say about `CC(C)[C@@H](C)/C=C/[C@@H](C)[C@H]1CC[C@H]2C3=CC=C4C[C@@H](O)CC[C@]4(C)C3=CC[C@]12C` ?
Solution: inactive
